Recorded values, source patent US8778984B2.

biological target: human cyp11B2 (Homo sapiens, UniProt P19099); test: Aldosterone Synthase Inhibitor Assay (V79-hcyp11B2 cells, aldosterone by LC-MS); details: aldosterone production from 1 μM DOC, 24 hours incubation, geometric means, separate experiments
Sequence (P19099 25-503): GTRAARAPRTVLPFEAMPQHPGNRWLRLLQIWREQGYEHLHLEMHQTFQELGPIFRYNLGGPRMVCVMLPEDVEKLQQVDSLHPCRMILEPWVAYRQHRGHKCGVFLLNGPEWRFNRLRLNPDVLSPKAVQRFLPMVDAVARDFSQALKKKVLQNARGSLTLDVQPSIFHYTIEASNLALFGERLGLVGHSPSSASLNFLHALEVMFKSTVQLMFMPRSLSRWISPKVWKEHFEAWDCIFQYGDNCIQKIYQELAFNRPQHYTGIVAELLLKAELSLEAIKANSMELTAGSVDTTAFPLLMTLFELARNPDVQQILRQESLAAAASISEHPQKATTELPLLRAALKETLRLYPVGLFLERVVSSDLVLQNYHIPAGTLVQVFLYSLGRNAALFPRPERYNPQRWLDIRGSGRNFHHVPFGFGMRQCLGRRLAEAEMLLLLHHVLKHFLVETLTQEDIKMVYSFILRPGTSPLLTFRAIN
This section presents compounds with their documented pIC50 values.
Convention used: pIC50 is expressed as -log10 of the molar concentration.

{"compound": "CC1(C)CC(c2ccc(C#N)cc2F)c2cn[nH]c21 (single isomer, unassigned; isomer 1)", "pIC50": 8.15}
{"compound": "Cc1ccc(C2CCCc3n[nH]cc32)cc1 (single isomer, unassigned; isomer 2)", "pIC50": 6.81}

## Task Given the entry FC(F)(F)c1ccc(C2CCc3[nH]ncc32)cc1 (racemic) , report its measured pIC50.
## Result 6.80

## Task Return reported pIC50; argument: N#Cc1ccc(C2CCCc3[nH]ncc32)cc1F (racemic)
## Result 8.30

## Task Bench note: what pIC50 did CC1(C)C[C@H](c2ccc(C#N)cc2)c2cn[nH]c21 (single isomer, unassigned) show?
## Result 8.30

* * *

molecular target: cynomolgus monkey cyp11B1 (Macaca fascicularis, UniProt A0A2K5ULY1); experiment: Cynomolgus Monkey Cortisol Inhibition Assay; conditions: V79 cells expressing cynomolgus monkey cyp11B1; n=1; read-out: relative IC50, cynomolgus monkey cortisol inhibition assay
Sequence (A0A2K5ULY1 entry or part of it): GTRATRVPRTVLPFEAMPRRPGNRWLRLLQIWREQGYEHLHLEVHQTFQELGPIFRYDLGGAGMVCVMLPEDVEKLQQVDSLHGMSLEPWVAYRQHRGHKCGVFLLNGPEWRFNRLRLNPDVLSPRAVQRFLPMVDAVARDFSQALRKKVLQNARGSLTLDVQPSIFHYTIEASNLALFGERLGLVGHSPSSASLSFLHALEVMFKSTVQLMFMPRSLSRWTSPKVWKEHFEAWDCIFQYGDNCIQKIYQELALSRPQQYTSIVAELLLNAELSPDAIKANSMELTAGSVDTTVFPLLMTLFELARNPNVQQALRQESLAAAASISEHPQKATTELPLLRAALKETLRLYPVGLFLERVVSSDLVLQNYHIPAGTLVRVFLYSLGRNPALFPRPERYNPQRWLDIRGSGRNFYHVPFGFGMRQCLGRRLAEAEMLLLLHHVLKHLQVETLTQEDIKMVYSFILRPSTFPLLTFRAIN
This listing pairs compounds with measured pIC50.
Scale: pIC50 equals -log10([C]), with [C] in mol/L.

{"compound": "CC1(C)CC(c2ccc(C#N)cc2F)c2cn[nH]c21 (single isomer, unassigned; isomer 1)", "pIC50": 6.24}

Please find the next compound below.
## Task Given the entry CC1(C)C[C@H](c2ccc(C#N)cc2)c2cn[nH]c21 (single isomer, unassigned) , report its measured pIC50.
## Result 6.68

* * *

// IC50 lookup, one value per entry
tested on: estradiol production from H295R cells; test: cells; format: cell-based, human; details: Homo sapiens, NCI-H295R; H295R cells, 48 hours incubation; read-out: Estradiol IC50
Give the value, in units of µM, as a plain number.

{"molecule": "CC1(C)C[C@H](c2ccc(C#N)cc2)c2cn[nH]c21 (single isomer, unassigned)", "unit_of_measure": "µM", "IC50": 13.2}

Could you now consider this next molecule?
## Task Which IC50 reading was recorded for the molecule CC1(C)CC(c2ccc(C#N)cc2F)c2cn[nH]c21 (single isomer, unassigned; isomer 1) ?
## Result 22
